compounds and their reported DC50
# tested on: Brd4 (L) (Homo sapiens)
# Construct: endogenous in cells; host or cells: HEK293 (CRL-1573), HeLa (CCL-2)
# protocol summary: Concentration-dependent BET degradation, immunoblot
# Format: cell-based
# condition summary: HEK293, Brd4 (L), 4 h, 1 nM-10 μM

compound: Cc1sc2c(c1C)C(c1ccc(Cl)cc1)=N[C@@H](CC(=O)NCCCCNC(=O)c1cc(SC(=O)c3ccccc3)c3ncc(C(=O)NCCc4nccs4)cc3c1)c1nnc(C)n1-2 [Example 11JQ16]
DC50: ≤ 50 nM

Kindly consider the entry below.
The measured DC50 that Cc1sc2c(c1C)C(c1ccc(Cl)cc1)=N[C@@H](CC(=O)NCCCCNC(=O)c1cc(S)c3ncc(C(=O)NCc4ccc(F)cc4)cc3c1)c1nnc(C)n1-2 [Example 11JQ12] showed for Brd4 (L) (Homo sapiens) is 51 to 500 nM

###

# tested on: UniProt:P25440
# protocol summary: Concentration-dependent BET degradation, immunoblot
# Type: cell-based
# Design: endogenous in cells; host or cells: HEK293 (CRL-1573), HeLa (CCL-2)
# condition summary: HeLa, Brd2, 4 h, 1 nM-10 μM
molecules and their reported Dmax

molecule: Cc1sc2c(c1C)C(c1ccc(Cl)cc1)=N[C@@H](CC(=O)NCCOCCNC(=O)c1cc(S)c3ncc(C(=O)NCCc4nccs4)cc3c1)c1nnc(C)n1-2 [Example 11JQ1]
Dmax: 26 to 50%
//
molecule: Cc1sc2c(c1C)C(c1ccc(Cl)cc1)=N[C@@H](CC(=O)NCCOCCNC(=O)c1cc(SC(C)(C)C)c3ncc(C(=O)NCCc4nccs4)cc3c1)c1nnc(C)n1-2 [Example 11JQ17]
Dmax: ≤ 25%
//
molecule: Cc1sc2c(c1C)C(c1ccc(Cl)cc1)=N[C@@H](CC(=O)NCCCCNC(=O)c1cc(SC(=O)c3ccccc3)c3ncc(C(=O)NCCc4nccs4)cc3c1)c1nnc(C)n1-2 [Example 11JQ16]
Dmax: 51 to 70%
//
molecule: Cc1sc2c(c1C)C(c1ccc(Cl)cc1)=N[C@@H](CC(=O)NCCOCCNC(=O)c1cc(SC(=O)c3ccccc3)c3ncc(C(=O)NCCc4nccs4)cc3c1)c1nnc(C)n1-2 [Example 11JQ15]
Dmax: 26 to 50%
//
molecule: Cc1sc2c(c1C)C(c1ccc(Cl)cc1)=N[C@@H](CC(=O)NCCCCNC(=O)c1cc(S)c3ncc(C(=O)NCc4ccc(F)cc4)cc3c1)c1nnc(C)n1-2 [Example 11JQ12]
Dmax: 26 to 50%

Input Cc1sc2c(c1C)C(c1ccc(Cl)cc1)=N[C@@H](CC(=O)NCCCCNC(=O)c1cc(S)c3ncc(C(=O)NCCc4nccs4)cc3c1)c1nnc(C)n1-2 [Example 11JQ7] . Output Dmax: ≥ 71%

###

# tested on: Brd4 (S) (Homo sapiens, UniProt O60885)
# Construct: endogenous in cells; host or cells: HEK293 (CRL-1573), HeLa (CCL-2)
# protocol summary: Time-dependent BET degradation, immunoblot
# Type: cell-based
# condition summary: HEK293, Brd4 (S), 1 μM; time to reach 50% of the Dmax
compounds and their reported T1/2
A complete answer gives the number followed by the unit.

Sample records with T1/2:
record smiles: Cc1sc2c(c1C)C(c1ccc(Cl)cc1)=N[C@@H](CC(=O)NCCOCCNC(=O)c1cc(SC(=O)c3ccccc3)c3ncc(C(=O)NCCc4nccs4)cc3c1)c1nnc(C)n1-2
T1/2: 0.9 h

record smiles: Cc1sc2c(c1C)C(c1ccc(Cl)cc1)=N[C@@H](CC(=O)NCCOCCNC(=O)c1cc(S)c3ncc(C(=O)NCCc4nccs4)cc3c1)c1nnc(C)n1-2
T1/2: 2 h

record smiles: Cc1sc2c(c1C)C(c1ccc(Cl)cc1)=N[C@@H](CC(=O)NCCCCNC(=O)c1cc(SC(=O)c3ccccc3)c3ncc(C(=O)NCCc4nccs4)cc3c1)c1nnc(C)n1-2
T1/2: 0.6 h

Kindly consider the entry below.
Input Cc1sc2c(c1C)C(c1ccc(Cl)cc1)=N[C@@H](CC(=O)NCCCCNC(=O)c1cc(S)c3ncc(C(=O)NCCc4nccs4)cc3c1)c1nnc(C)n1-2 . Output T1/2: 1.9 h

###

# tested on: Brd4 (S) (Homo sapiens)
# Construct: endogenous in cells; host or cells: HEK293 (CRL-1573), HeLa (CCL-2)
# protocol summary: Concentration-dependent BET degradation, immunoblot
# Type: cell-based
# condition summary: HEK293, Brd4 (S), 4 h, 1 nM-10 μM
readout: Dmax

record smiles: Cc1sc2c(c1C)C(c1ccc(Cl)cc1)=N[C@@H](CC(=O)NCCOCCNC(=O)c1cc(S)c3ncc(C(=O)NCCc4nccs4)cc3c1)c1nnc(C)n1-2
Dmax: ≥ 71%
//
record smiles: Cc1sc2c(c1C)C(c1ccc(Cl)cc1)=N[C@@H](CC(=O)NCCCCNC(=O)c1cc(SC(=O)c3ccccc3)c3ncc(C(=O)NCCc4nccs4)cc3c1)c1nnc(C)n1-2
Dmax: ≥ 71%
//
record smiles: Cc1sc2c(c1C)C(c1ccc(Cl)cc1)=N[C@@H](CC(=O)NCCCCNC(=O)c1cc(S)c3ncc(C(=O)NCCc4nccs4)cc3c1)c1nnc(C)n1-2
Dmax: ≥ 71%
//
record smiles: Cc1sc2c(c1C)C(c1ccc(Cl)cc1)=N[C@@H](CC(=O)NCCCCNC(=O)c1cc(S)c3ncc(C(=O)NCc4ccc(F)cc4)cc3c1)c1nnc(C)n1-2
Dmax: ≥ 71%
//
record smiles: Cc1sc2c(c1C)C(c1ccc(Cl)cc1)=N[C@@H](CC(=O)NCCOCCNC(=O)c1cc(SC(C)(C)C)c3ncc(C(=O)NCCc4nccs4)cc3c1)c1nnc(C)n1-2
Dmax: ≤ 25%

Kindly consider the entry below.
Input Cc1sc2c(c1C)C(c1ccc(Cl)cc1)=N[C@@H](CC(=O)NCCOCCNC(=O)c1cc(SC(=O)c3ccccc3)c3ncc(C(=O)NCCc4nccs4)cc3c1)c1nnc(C)n1-2 . Output Dmax: 51 to 70%

###

# tested on: Brd3 (Homo sapiens, UniProt Q15059)
# Sequence (Q15059 whole entry): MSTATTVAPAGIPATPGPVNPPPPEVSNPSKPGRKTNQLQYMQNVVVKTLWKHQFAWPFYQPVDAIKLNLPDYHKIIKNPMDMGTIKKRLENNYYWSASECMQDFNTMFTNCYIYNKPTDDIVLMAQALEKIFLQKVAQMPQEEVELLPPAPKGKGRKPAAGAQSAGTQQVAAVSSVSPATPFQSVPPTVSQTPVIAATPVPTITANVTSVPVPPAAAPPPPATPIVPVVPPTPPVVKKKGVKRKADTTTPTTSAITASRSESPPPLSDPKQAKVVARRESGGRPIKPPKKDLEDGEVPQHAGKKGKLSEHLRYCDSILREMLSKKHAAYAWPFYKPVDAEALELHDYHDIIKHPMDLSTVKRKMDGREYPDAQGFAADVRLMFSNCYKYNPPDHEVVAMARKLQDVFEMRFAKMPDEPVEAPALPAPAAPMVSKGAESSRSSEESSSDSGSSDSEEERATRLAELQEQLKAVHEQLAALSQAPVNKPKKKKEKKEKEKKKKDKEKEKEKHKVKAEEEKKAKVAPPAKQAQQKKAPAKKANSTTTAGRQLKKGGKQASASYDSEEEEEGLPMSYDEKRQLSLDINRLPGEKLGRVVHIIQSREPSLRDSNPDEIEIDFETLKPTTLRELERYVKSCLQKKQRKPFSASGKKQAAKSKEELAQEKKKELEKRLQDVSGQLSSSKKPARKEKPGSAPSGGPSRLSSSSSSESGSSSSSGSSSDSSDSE
# protocol summary: Concentration-dependent BET degradation, immunoblot
# Assay type: cell-based
# Design: endogenous in cells; host or cells: HEK293 (CRL-1573), HeLa (CCL-2)
# condition summary: HEK293, Brd3, 4 h, 1 nM-10 μM
readout: DC50

Sample records with DC50:
record smiles: Cc1sc2c(c1C)C(c1ccc(Cl)cc1)=N[C@@H](CC(=O)NCCOCCNC(=O)c1cc(SC(=O)c3ccccc3)c3ncc(C(=O)NCCc4nccs4)cc3c1)c1nnc(C)n1-2
DC50: 51 to 500 nM
--
record smiles: Cc1sc2c(c1C)C(c1ccc(Cl)cc1)=N[C@@H](CC(=O)NCCCCNC(=O)c1cc(SC(=O)c3ccccc3)c3ncc(C(=O)NCCc4nccs4)cc3c1)c1nnc(C)n1-2
DC50: ≤ 50 nM

Input Cc1sc2c(c1C)C(c1ccc(Cl)cc1)=N[C@@H](CC(=O)NCCOCCNC(=O)c1cc(S)c3ncc(C(=O)NCCc4nccs4)cc3c1)c1nnc(C)n1-2 . Output DC50: ≥ 501 nM

Input Cc1sc2c(c1C)C(c1ccc(Cl)cc1)=N[C@@H](CC(=O)NCCCCNC(=O)c1cc(S)c3ncc(C(=O)NCc4ccc(F)cc4)cc3c1)c1nnc(C)n1-2 . Output DC50: ≥ 501 nM

Input Cc1sc2c(c1C)C(c1ccc(Cl)cc1)=N[C@@H](CC(=O)NCCCCNC(=O)c1cc(S)c3ncc(C(=O)NCCc4nccs4)cc3c1)c1nnc(C)n1-2 . Output DC50: ≥ 501 nM

###

compounds and their reported Abs. T1/2
# tested on: Brd2 (Homo sapiens, UniProt P25440)
# Sequence (P25440 whole entry): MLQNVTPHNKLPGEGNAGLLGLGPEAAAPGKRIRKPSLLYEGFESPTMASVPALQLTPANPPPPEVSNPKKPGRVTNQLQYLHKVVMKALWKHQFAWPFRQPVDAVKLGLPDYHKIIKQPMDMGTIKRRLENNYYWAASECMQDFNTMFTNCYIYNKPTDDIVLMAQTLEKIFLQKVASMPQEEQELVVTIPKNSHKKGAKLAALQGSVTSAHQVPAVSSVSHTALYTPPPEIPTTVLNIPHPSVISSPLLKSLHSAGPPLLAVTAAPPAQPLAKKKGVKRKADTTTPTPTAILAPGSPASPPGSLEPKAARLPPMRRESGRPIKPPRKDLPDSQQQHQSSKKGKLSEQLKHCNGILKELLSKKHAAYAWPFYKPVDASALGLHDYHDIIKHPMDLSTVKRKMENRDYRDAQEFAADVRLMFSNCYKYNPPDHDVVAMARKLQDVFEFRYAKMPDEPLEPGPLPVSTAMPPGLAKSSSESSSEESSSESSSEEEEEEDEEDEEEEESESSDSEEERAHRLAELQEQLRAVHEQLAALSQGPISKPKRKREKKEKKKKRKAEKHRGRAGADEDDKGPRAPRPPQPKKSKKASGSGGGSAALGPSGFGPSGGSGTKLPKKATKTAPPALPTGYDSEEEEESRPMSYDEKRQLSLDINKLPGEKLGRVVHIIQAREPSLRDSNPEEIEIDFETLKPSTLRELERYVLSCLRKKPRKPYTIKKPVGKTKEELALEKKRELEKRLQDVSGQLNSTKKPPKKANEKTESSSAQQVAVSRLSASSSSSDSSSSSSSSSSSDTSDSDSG
# protocol summary: Time-dependent BET degradation, immunoblot
# Type: cell-based
# condition summary: HEK293, Brd2, 1 μM; time to deplete 50% of the protein relative to DMSO
A complete answer gives the number followed by the unit.

Input Cc1sc2c(c1C)C(c1ccc(Cl)cc1)=N[C@@H](CC(=O)NCCCCNC(=O)c1cc(SC(=O)c3ccccc3)c3ncc(C(=O)NCCc4nccs4)cc3c1)c1nnc(C)n1-2 . Output Abs. T1/2: 2.7 h

Input Cc1sc2c(c1C)C(c1ccc(Cl)cc1)=N[C@@H](CC(=O)NCCOCCNC(=O)c1cc(S)c3ncc(C(=O)NCCc4nccs4)cc3c1)c1nnc(C)n1-2 . Output Abs. T1/2: 3.5 h

Input Cc1sc2c(c1C)C(c1ccc(Cl)cc1)=N[C@@H](CC(=O)NCCOCCNC(=O)c1cc(SC(=O)c3ccccc3)c3ncc(C(=O)NCCc4nccs4)cc3c1)c1nnc(C)n1-2 . Output Abs. T1/2: 5.7 h

Input Cc1sc2c(c1C)C(c1ccc(Cl)cc1)=N[C@@H](CC(=O)NCCCCNC(=O)c1cc(S)c3ncc(C(=O)NCCc4nccs4)cc3c1)c1nnc(C)n1-2 . Output Abs. T1/2: 3.2 h
